- target_system: TtClpP (Thermus thermophilus)
- method_notes: Isothermal titration calorimetry fitted to the MWC model
- Format: binding
- conditions: Kd,R = KR^−1, R state, higher affinity
measurement_kind: pKd
Give bare numbers, as −log10 of the molar value.

Please state recorded pKd (tested on TtClpP (Thermus thermophilus)) of `CC(C)C[C@H](NC(=O)[C@H](Cc1ccccc1)NC(=O)c1cnccn1)B(O)O` 4.82

* * *

- target_system: EcClpP (Escherichia coli, UniProt P0A6G7)
- method_notes: EcClpP peptidase activity, PKMamc degradation
- Format: biochemical
measurement_kind: pIC50
Answers are plain numbers, as −log10 of the molar value.

Name the reported pIC50 value associated with the molecule `CC(C)C[C@H](NC(=O)[C@H](Cc1ccccc1)NC(=O)c1cnccn1)B(O)O` 5.80
